Origin of values: ChEMBL document CHEMBL4138140

target: UniProt:P15085; assay: Irreversible inhibition of recombinant human carboxypeptidase A1 expressed in Pichia pastoris using N-(4-methoxyphenylazoformyl)-Phe-OH as substrate measured for 600 secs by double reciprocal plot analysis; details: read-out: Ki(app)
Sequence (P15085 whole entry): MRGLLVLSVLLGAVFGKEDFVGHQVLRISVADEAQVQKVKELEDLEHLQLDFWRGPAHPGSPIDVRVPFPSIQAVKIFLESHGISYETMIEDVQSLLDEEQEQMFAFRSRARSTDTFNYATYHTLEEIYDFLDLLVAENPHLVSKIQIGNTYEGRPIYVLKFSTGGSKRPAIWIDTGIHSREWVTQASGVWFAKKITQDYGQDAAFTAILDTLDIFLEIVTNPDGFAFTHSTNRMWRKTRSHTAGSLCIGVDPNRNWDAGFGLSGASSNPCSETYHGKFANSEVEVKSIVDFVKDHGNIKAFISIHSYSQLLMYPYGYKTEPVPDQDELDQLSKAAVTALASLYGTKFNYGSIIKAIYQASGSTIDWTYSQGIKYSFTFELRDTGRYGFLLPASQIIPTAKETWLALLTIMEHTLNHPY
pKi: −log10 of the molar value.
Parameter threshold = 4. Response is y when pKi meets or exceeds it, else n.

Previously resolved entries follow.
Please indicate if the recorded pKi for O=C(O)[C@@H](Cc1ccc(I)cc1)[C@@H]1CO1 (racemic) meets or exceeds 4.
n

Please indicate if the recorded pKi for O=C(O)[C@@H](Cc1ccc(F)cc1)[C@H]1CS1 (racemic) meets or exceeds 4.
y

Please indicate if the recorded pKi for O=C(O)[C@@H](Cc1ccc(F)cc1)[C@@H]1CO1 (racemic) meets or exceeds 4.
n

Further cases:
Please indicate if the recorded pKi for CCC[C@H](C(=O)O)[C@@H]1CS1 (racemic) meets or exceeds 4.
n

Please indicate if the recorded pKi for O=C(O)[C@@H](Cc1ccc(I)cc1)[C@H]1CS1 (racemic) meets or exceeds 4.
n

Please indicate if the recorded pKi for CC(C)C[C@H](C(=O)O)[C@@H]1CS1 (racemic) meets or exceeds 4.
y

====

molecular target: Carboxypeptidase A1 (Bos taurus, UniProt P00730); assay: Inhibition of bovine carboxypeptidase A using N-(4-methoxyphenylazoformyl)-Phe-OH as substrate preincubated for 2 mins followed by susbtrate addition measured for 15 mins at 30 secs interval
Sequence (P00730 whole entry): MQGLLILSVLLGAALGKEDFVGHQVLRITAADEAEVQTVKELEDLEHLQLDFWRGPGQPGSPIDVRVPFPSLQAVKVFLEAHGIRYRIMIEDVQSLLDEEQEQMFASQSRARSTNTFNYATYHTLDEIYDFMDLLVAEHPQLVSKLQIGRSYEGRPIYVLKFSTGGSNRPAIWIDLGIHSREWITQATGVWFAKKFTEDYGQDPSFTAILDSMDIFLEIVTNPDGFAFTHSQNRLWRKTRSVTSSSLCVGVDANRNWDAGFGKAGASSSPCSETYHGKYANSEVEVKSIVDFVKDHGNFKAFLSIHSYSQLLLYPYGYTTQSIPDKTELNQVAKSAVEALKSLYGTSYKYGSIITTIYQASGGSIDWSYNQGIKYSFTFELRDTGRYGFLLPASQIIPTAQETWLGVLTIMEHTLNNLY
pIC50: −log10 of the molar value.
Parameter threshold = 4. Response is YES when pIC50 meets or exceeds it, else NO.

Please indicate if the recorded pIC50 for O=C(O)[C@@H](Cc1ccc(I)cc1)[C@@H]1CO1 (racemic) meets or exceeds 4.
YES

Please indicate if the recorded pIC50 for O=C(O)[C@@H](CC1CCC1)[C@H]1CS1 (racemic) meets or exceeds 4.
YES

Please indicate if the recorded pIC50 for O=C(O)[C@@H](Cc1ccc(F)cc1)[C@@H]1CO1 (racemic) meets or exceeds 4.
YES

Further cases:
Please indicate if the recorded pIC50 for O=C(O)[C@@H](CC1CCC1)[C@@H]1CO1 (racemic) meets or exceeds 4.
YES

Please indicate if the recorded pIC50 for O=C(O)[C@@H](Cc1ccc(I)cc1)[C@H]1CS1 (racemic) meets or exceeds 4.
YES

Please indicate if the recorded pIC50 for CCC[C@H](C(=O)O)[C@@H]1CS1 (racemic) meets or exceeds 4.
YES

Please indicate if the recorded pIC50 for O=C(O)[C@@H](CC1CC1)[C@H]1CS1 (racemic) meets or exceeds 4.
NO

Please indicate if the recorded pIC50 for O=C(O)[C@@H](Cc1ccc(F)cc1)[C@H]1CS1 (racemic) meets or exceeds 4.
YES

Please indicate if the recorded pIC50 for O=C(O)[C@@H](CC1CC1)[C@@H]1CO1 (racemic) meets or exceeds 4.
NO

Please indicate if the recorded pIC50 for CC(C)C[C@H](C(=O)O)[C@@H]1CS1 (racemic) meets or exceeds 4.
YES

====

biological target: Carboxypeptidase A1 (Bos taurus, UniProt P00730); test: Inhibition of bovine carboxypeptidase A using N-(4-methoxyphenylazoformyl)-Phe-OH as substrate preincubated for 3 hrs followed by susbtrate addition measured for 15 mins at 30 secs interval
Item-by-item account of IC50
Report as a plain number; the unit nM is understood.

Below: 5 molecules and their reported IC50.
Which IC50 is listed for O=C(O)[C@@H](CC1CCC1)[C@@H]1CO1 (racemic) ?
1130

Which IC50 is listed for CC(C)C[C@H](C(=O)O)[C@@H]1CS1 (racemic) ?
260

Which IC50 is listed for O=C(O)[C@@H](CC1CCC1)[C@H]1CS1 (racemic) ?
970

Which IC50 is listed for CC(C)C[C@H](C(=O)O)[C@@H]1CO1 (racemic) ?
33100

Which IC50 is listed for O=C(O)[C@@H](CC1CC1)[C@H]1CS1 (racemic) ?
1800

Alright, here's another molecule for you.
Which IC50 is listed for O=C(O)[C@@H](Cc1ccc(F)cc1)[C@@H]1CO1 (racemic) ?
510
